Tested on: CAKI-1 renal
Assay Explanation: NCI-60 one-dose screen, 48 h
Assay Conditions: 10 µM unless noted
The panel holds about 83,000 compounds, 20% with a hit somewhere; the sample as a whole holds those more often. Calls of active or inactive are those of the source. The calls were made as follows: active = growth percent below 10; inactive = the rest.
Give one outcome, nothing more. List: true = active, false = inactive

# example entries with known answers
> print(dat)
                                   molecule  system.under.test  category.label
1  CC(C)c1ccc(C(=O)Nc2nc3ccc(O)c(CN(C)C)c3s2)cc1       CAKI-1 renal           false
2            O=C(Nc1nc2ccccc2s1)c1ccc(F)cc1       CAKI-1 renal           false
3  O=C1Nc2ccc(C(=O)O)cc2/C1=N/c1nnc(Sc2ccccc2)s1       CAKI-1 renal           false
4  CCC(C)N(CCNc1cc(OC)cc2cccnc12)CC(C)C (stereo not given)       CAKI-1 renal           false
5  Nc1ncnc2c1C(c1ccccc1)c1ccc3ccccc3c1O2 (stereo not given)       CAKI-1 renal           false
6  COc1ccc(-c2ccc(-c3ccc(C(=N)N)cc3)s2)cc1Cl       CAKI-1 renal            true
7  CCCCNC(=O)Oc1ccc(/C(=C(/C)Cc2ccc(OC)cc2)c2ccc(OCCN(CC)CC)cc2)cc1       CAKI-1 renal           false
8  CCOc1nc(-c2ccccc2)cc2c(O)c(C(=O)N/N=C/c3ccccc3)[nH]c(=O)c12       CAKI-1 renal           false

Prompt: Which result was noted for this molecule in the test: COc1cc(/C=C2/C=C(c3ccccc3)N(CCc3ccc(S(N)(=O)=O)cc3)C2=O)cc(OC)c1OC
Response: false

Prompt: Which result was noted for this molecule in the test: Oc1c(Br)cc(Br)c2ccc(Cn3cc(-c4ccccc4C(F)(F)F)nn3)nc12
Response: false

---

Tested on: SK-MEL-28 melanoma
Assay Explanation: NCI-60 one-dose screen, 48 h
Assay Conditions: 10 µM unless noted
Experimental: Growth inhibition of the SK-MEL-28 human tumor cell line is measured as a screen for anti-cancer activity. Cells are grown in 96 well plates and exposed to the test compound for 48 hours. Compounds are tested at a single concentration, which is 10^-5 M for most compounds. The reported endpoint is percent growth (GI% or GIPRCNT), where numbers from 0 - 100% represent growth inhibition, and numbers from -100% - 0 represent cell death. For example, a value of 40 represents 60% growth inhibition. […]
About 83,000 compounds went through this panel and 20% of them were active in at least one assay; those are over-represented in the sample as a whole. Activity calls are given as the source filed them. Rule for the calls: active = growth percent below 10; inactive = the rest.
Give one outcome, nothing more. List: yes (1) (active), no (0) (inactive)

# example entries with known answers
> print(dat)
                                   compound  category.label
1  Nc1ncnc2c1C(c1ccccc1)c1ccc3ccccc3c1O2 (configuration not stated)          no (0)
2          CCCOC(=O)Nc1nc2ccc(SCC(C)C)cc2s1          no (0)
3  COc1c(B(O)O)cccc1-c1nc2c(F)cc3[nH]ncc3c2c2c1CCCC2         yes (1)
4  CCN(CC)CCCCCNc1cc(OC(=O)c2ccc(Cl)cc2)cc2cccnc12          no (0)
5   NNc1nc(-c2cccnc2)nc2c1sc(=S)n2-c1ccccc1          no (0)

Prompt: Which result was noted for this compound in the test: O=S(=O)(Nc1ccc(Cl)c(C(F)(F)F)c1)c1ccc(-c2cnc(C3CC3)o2)cc1
Response: no (0)

Prompt: Which result was noted for this compound in the test: CN(C)CC(C)(C)C(=O)/C=C/c1ccccc1
Response: yes (1)

---

Test system: SF-295 CNS
Assay Explanation: NCI-60 one-dose screen, 48 h (100 = growth as untreated, 0 = no growth, -100 = all killed)
Assay Conditions: 10 µM unless noted
Compounds without any hit were thinned out: in the full panel of roughly 83,000, 20% have a hit.
Lab note: compare growth against 30%. Equal or greater, write Fulfilled. Smaller, write Not fulfilled.

# example entries with known answers
> print(dat)
                                        smi  category.label
1  OCCn1cc(-c2nc(-c3c[nH]c4ncccc34)cs2)c2cc(F)ccc21       Fulfilled
2  COC1=CC(c2ccc[nH]2)=N/C1=C\c1[nH]c(C)c(C(=O)OC(C)C)c1C   Not fulfilled
3     O=C1/C(=C/c2ccccc2O)CC/C1=C\c1ccccc1O       Fulfilled
4  CS(=O)(=O)Nc1cc(-c2ccc3ncnc(Nc4ccc5c(cnn5Cc5cccc(F)c5)c4)c3c2)cnc1Cl   Not fulfilled
5  CCN(CC)CCn1c2ccc(O)cc2c2sc3cc(O)ccc3c(=O)c21   Not fulfilled

Proceed to the following item.
Prompt: Test whether the molecule COCCn1cc(-c2csc(-c3cn(C)c4ccc(Br)cc34)n2)c2cccnc21 records growth of 30% or higher.
Response: Fulfilled

---

System: HCT-15 colon
Assay Explanation: NCI-60 one-dose screen, 48 h
Assay Conditions: 10 µM unless noted
About 83,000 compounds went through this panel and 20% of them were active in at least one assay; those are over-represented in the sample as a whole. Active and inactive are the calls of the source. How the source made its calls: active means growth percent below 10; inactive means the rest.
Give one outcome, nothing more. List: active, inactive

# example entries with known answers
> print(dat)
                                        smi  system.under.test  category.label
1  N#Cc1ccc2c(c1)C(=O)c1c-2n(CCCN)c(=O)c2cc([N+](=O)[O-])ccc12       HCT-15 colon          active
2  COc1ccc(OC)c(-c2nc(SCC(=O)c3ccc(C#N)cc3)[nH]c(=O)c2C#N)c1       HCT-15 colon        inactive
3  COc1ccc(C/C(C)=C(/c2ccc(OCCN(C)C)cc2)c2ccc(OC(=O)NCc3ccccc3)cc2)cc1       HCT-15 colon        inactive
4  C=C1C(=O)O[C@H]2[C@H]1CC/C(COC(=O)NCc1ccc(Cn3c(=O)sn(CCCCC)c3=O)cc1)=C\CC[C@@]1(C)O[C@@H]21       HCT-15 colon        inactive

Prompt: Which result was noted for this compound in the test: Cc1c2cnccc2c(C)c2c1c1cc(C#N)ccc1n2C
Response: active

Prompt: Which result was noted for this compound in the test: Cc1sc2nc(NCCc3c[nH]c4ccc(Cl)cc34)[nH]c(=O)c2c1C
Response: active

Prompt: Which result was noted for this compound in the test: O=C(/C=C/c1cccs1)Nc1ncc(Cc2ccccc2F)s1
Response: inactive

Prompt: Which result was noted for this compound in the test: CCCNc1nc2ccccc2c2c1S(=O)(=O)c1ccc(Cl)cc1C2=O
Response: active

Prompt: Which result was noted for this compound in the test: COc1cc2cc(NCc3cccc(Cl)c3)nc(C)c2cc1OC
Response: inactive

---

Test system: M14 melanoma
Assay Explanation: NCI-60 one-dose screen, 48 h (100 = growth as untreated, 0 = no growth, -100 = all killed)
Assay Conditions: 10 µM unless noted
Compounds without any hit were thinned out: in the full panel of roughly 83,000, 20% have a hit.
Below: a set of entries, each annotated with reported growth.
Provide the reading as a plain figure in %.

Molecule	Readout Units	Value Reported
O=C(Nc1ccc(Oc2cccc(Cl)c2)c(Cl)c1)c1cnccn1	%	19.8
Oc1c(I)cc(I)cc1CNCc1ccccn1	%	8.61
COc1ccc2c(c1)CC[C@H](O)/C2=C/c1cc(OC)c(OC)c(OC)c1	%	6.27
Oc1ccc(Cl)cc1/C=N\NC(=S)N/N=C/c1cc(Cl)ccc1O	%	27.1
Fc1cc2c(cc1Cl)N(c1ncnc3ccc(-c4ccc5n[nH]nc5c4)cc13)CC2	%	94.8
COc1ccc(Nc2ncc(Br)c(NCCCNC(=O)C3CCCC3)n2)cc1	%	61.5

Here's the next entry for you.
Prompt: Given Cc1ccc2c(c1)=C/C(=C\c1cc(-c3ccccc3)oc1O)C(=O)N=2 , state its recorded growth.
Response: 90.6

---

Test system: ACHN renal
Assay Explanation: NCI-60 one-dose screen, 48 h
Assay Conditions: 10 µM unless noted
About 83,000 compounds went through this panel and 20% of them were active in at least one assay; those are over-represented in the sample as a whole. Calls of active or inactive are those of the source. The calls were made as follows: active = growth percent below 10; inactive = the rest.
Give one outcome, nothing more. List: YES for active, NO for inactive

# example entries with known answers
> print(dat)
                                   molecule  system.under.test  category.label
1  COc1ccc(/C=N\Nc2nc(SCCC(C)C)nc(-c3ccc(OC)cc3)c2C#N)cc1         ACHN renal             YES
2  C=CCc1c(O)c(C(=O)/C=C/c2ccccc2)c(OC)c2ccoc12         ACHN renal              NO
3  CCNCCNc1cc(C2CCCCC2)c(C#N)c2nc3ccccc3n12         ACHN renal             YES
4  Oc1c(I)cc(I)cc1CNCCN(Cc1ccccn1)Cc1ccccn1         ACHN renal             YES
5  O=C(Nc1ccc(Oc2cccc(Cl)c2)c(Cl)c1)c1cccnc1         ACHN renal              NO

Prompt: Which result was noted for this molecule in the test: CN1CCN(C(=O)c2ccc(NC(=O)c3cc4c(nn3)NCCN4Cc3cc(Cl)ccc3Cl)cc2)CC1
Response: NO

Prompt: Which result was noted for this molecule in the test: O=CN1N=C(c2cccc(Nc3ccnc4cc(Cl)ccc34)c2)CC1c1ccccc1 (stereo not given)
Response: NO

Prompt: Which result was noted for this molecule in the test: CCCCCCCCCCCCCCCCOCCCOP(=O)(O)C1CCCN(O)C1=O (stereo not given)
Response: NO

Prompt: Which result was noted for this molecule in the test: COc1cc(/C=C/C(=O)c2ccc(F)cc2)ccc1OCCCCOc1ccc(/C=C/C(=O)c2c(C)nc3ccccc3c2C)cc1OC
Response: NO

Prompt: Which result was noted for this molecule in the test: COC(=O)CC[C@@H]1O[C@@H](c2cccc(C(F)(F)F)c2)[C@@H](O)[C@H]1O
Response: NO

Prompt: Which result was noted for this molecule in the test: Cc1c(O)cc(-c2cnc(Nc3ccccc3)s2)c(O)c1C
Response: NO
